System: human pancreatic cancer cell line SUIT-2
Test: WST-8 antiproliferative assay, SUIT-2
Assay type: cell-based
Settings: SUIT-2, 100 µM, WST-8 assay, read-out: Growth Inhibition (GI%) SUIT-2
Where inhibition at 100 µM equals or exceeds 90%, the correct label is t; where it does not, the label is f.

Worked set:
COc1ccc(-c2cc(C(=O)Oc3ccc(C(C)=O)cc3OC)nn2-c2ccc(S(N)(=O)=O)cc2)cc1OC [Compound 7j]	f
COc1ccc(-c2cc(C(=O)Oc3ccc(C(C)=O)cc3OC)nn2-c2ccc(S(N)(=O)=O)cc2)cc1 [Compound 7h]	f

Q. Does COc1ccc(-c2cc(C(=O)Oc3ccc(C(C)=O)cc3OC)nn2-c2ccccc2)cc1OC [Compound 7e] have a reported inhibition at 100 µM of at least 90%?
A. t

Q. Does the compound COc1cc(/C(C)=N/O)ccc1OC(=O)c1cc(-c2ccccc2)n(-c2ccccc2)n1 [Compound 8a] have recorded inhibition at 100 µM that is 90% or more?
A. f

Q. Record COc1cc(/C(C)=N/O)ccc1OC(=O)c1cc(-c2ccc(Cl)cc2)n(-c2ccc(S(N)(=O)=O)cc2)n1 [Compound 8i] ; criterion: inhibition at 100 µM no lower than 90%. Met?
A. t

Q. Confirm if inhibition at 100 µM reported for the compound COc1cc(C(C)=O)ccc1OC(=O)c1cc(-c2ccc(Cl)cc2)n(-c2ccccc2)n1 [Compound 7d] is 90% or above.
A. t

Q. Decide: is the reported value of inhibition at 100 µM for COc1ccc(-c2cc(C(=O)Oc3ccc(/C(C)=N/O)cc3OC)nn2-c2ccccc2)cc1 [Compound 8c] equal to or greater than 90%?
A. f

Q. Determine whether this compound has inhibition at 100 µM no lower than 90%: COc1ccc(-c2cc(C(=O)Oc3ccc(/C(C)=N/O)cc3OC)nn2-c2ccc(S(N)(=O)=O)cc2)cc1OC [Compound 8j]
A. f

Q. inhibition at 100 µM >= 90% for COc1cc(C(C)=O)ccc1OC(=O)c1cc(-c2ccc(C)cc2)n(-c2ccccc2)n1 [Compound 7b] ?
A. t

Q. Quick check: does COc1cc(C(C)=O)ccc1OC(=O)c1cc(-c2ccccc2)n(-c2ccccc2)n1 [Compound 7a] have inhibition at 100 µM greater than or equal to 90%?
A. t

* * *

Kindly supply the reported melting point values for the records listed here.

Some compounds with known melting point results, for comparison:
COc1cc(/C(C)=N/O)ccc1OC(=O)c1cc(-c2ccc(Cl)cc2)n(-c2ccccc2)n1	106 to 109 °C
COc1ccc(-c2cc(C(=O)Oc3ccc(C(C)=O)cc3OC)nn2-c2ccccc2)cc1OC	74 to 76 °C
COc1cc(C(C)=O)ccc1OC(=O)c1cc(-c2ccc(Cl)cc2)n(-c2ccccc2)n1	85 to 87 °C
COc1ccc(-c2cc(C(=O)Oc3ccc(/C(C)=N/O)cc3OC)nn2-c2ccc(S(N)(=O)=O)cc2)cc1	125 to 127 °C
COc1ccc(-c2cc(C(=O)Oc3ccc(C(C)=O)cc3OC)nn2-c2ccccc2)cc1	69 to 71 °C
COc1cc(C(C)=O)ccc1OC(=O)c1cc(-c2ccccc2)n(-c2ccccc2)n1	98 to 100 °C
COc1cc(C(C)=O)ccc1OC(=O)c1cc(-c2ccc(C)cc2)n(-c2ccc(S(N)(=O)=O)cc2)n1	83 to 85 °C
COc1ccc(-c2cc(C(=O)Oc3ccc(/C(C)=N/O)cc3OC)nn2-c2ccccc2)cc1OC	115 to 118 °C
COc1ccc(-c2cc(C(=O)Nc3ccc(C(C)=O)cc3)nn2-c2ccc(S(N)(=O)=O)cc2)cc1	74 to 76 °C
COc1ccc(-c2cc(C(=O)Nc3ccc(/C(C)=N/O)cc3)nn2-c2ccc(S(N)(=O)=O)cc2)cc1 [Compound 10b]	110 to 112 °C

Each of the following entries comes with a recorded value; kindly state melting point for each.
1. COc1cc(C(C)=O)ccc1OC(=O)c1cc(-c2ccc(C)cc2)n(-c2ccccc2)n1
2. COc1ccc(-c2cc(C(=O)Nc3ccc(C(C)=O)cc3)nn2-c2ccc(S(N)(=O)=O)cc2)cc1OC
3. COc1ccc(-c2cc(C(=O)Oc3ccc(/C(C)=N/O)cc3OC)nn2-c2ccccc2)cc1

A.
1. 110 to 112 °C
2. 81 to 83 °C
3. 132 to 135 °C

Source listed as paper PMC10537604.
